assay target: oxytocin receptor (CHO-OTR/NFAT-β-Lactamase cells) (Homo sapiens)
Sequence (P30559 1-389): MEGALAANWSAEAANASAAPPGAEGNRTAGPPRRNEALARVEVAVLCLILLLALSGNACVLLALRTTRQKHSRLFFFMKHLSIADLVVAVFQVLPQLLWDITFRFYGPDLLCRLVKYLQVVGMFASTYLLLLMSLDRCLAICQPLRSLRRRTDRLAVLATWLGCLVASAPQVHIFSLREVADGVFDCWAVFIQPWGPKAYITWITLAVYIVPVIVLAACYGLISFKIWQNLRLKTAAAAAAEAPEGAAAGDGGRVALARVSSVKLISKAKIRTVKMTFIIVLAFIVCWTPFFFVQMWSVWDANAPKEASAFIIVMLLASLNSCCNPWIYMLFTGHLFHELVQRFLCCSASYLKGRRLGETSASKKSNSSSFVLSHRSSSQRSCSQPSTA
test protocol: Oxytocin Receptor Beta-Lactamase Assay
stated conditions: oxytocin antagonist activity, n=3
value kind: pKi
Answers are plain numbers, as −log10 of the molar value.

I'd like to know its pKi. The molecule in question is COc1ccc(-n2c(C)nnc2-c2cnc(-c3ccc(F)cc3Cl)cn2)cn1 [Example 1]
8.27
